- TEST_DESCRIPTION: Single-dose pharmacokinetics of oral 25-hydroxyvitamin D3 formulations and IV injection in miniature swine (Example 1)
- Format: in vivo, Yucatan miniature swine
- CONDITIONS_USED: Yucatan, minipig, serum, iv, 250 ug
MEASUREMENT_LABEL: Cmax

Q: Fill in: Cmax of C=C1CC[C@H](O)C/C1=C/C=C1\CCC[C@]2(C)[C@@H]([C@H](C)CCCC(C)(C)O)CC[C@@H]12 [25-hydroxyvitamin D3] is ___
Result: 155 ng/mL

* * *

- TEST_DESCRIPTION: clinical
- CONDITIONS_USED: human, in vivo, 450 ug
MEASUREMENT_LABEL: Cmax (ng/mL)
State the answer as a number, implicitly in ng/mL.

Q: Fill in: Cmax of C=C1CC[C@H](O)C/C1=C/C=C1\CCC[C@]2(C)[C@@H]([C@H](C)CCCC(C)(C)O)CC[C@@H]12 [25-hydroxyvitamin D3] is ___
Result: 134

* * *

- TEST_DESCRIPTION: clinical
- CONDITIONS_USED: human, in vivo, 450 ug, tmax, Median
MEASUREMENT_LABEL: Tmax (min)
State the answer as a number, implicitly in min.

Q: Fill in: Tmax of C=C1CC[C@H](O)C/C1=C/C=C1\CCC[C@]2(C)[C@@H]([C@H](C)CCCC(C)(C)O)CC[C@@H]12 [25-hydroxyvitamin D3] is ___
Result: 15

* * *

- TEST_DESCRIPTION: Single-dose pharmacokinetics of oral 25-hydroxyvitamin D3 formulations and IV injection in miniature swine (Example 1)
- Type: in vivo, Yucatan miniature swine
- CONDITIONS_USED: Yucatan, minipig, serum, iv, 250 ug
MEASUREMENT_LABEL: Tmax (h)
State the answer as a number, implicitly in h.

Q: Fill in: Tmax of C=C1CC[C@H](O)C/C1=C/C=C1\CCC[C@]2(C)[C@@H]([C@H](C)CCCC(C)(C)O)CC[C@@H]12 [25-hydroxyvitamin D3] is ___
Result: 1.5
